Consider the following substances; for each one, report its Perturb-seq pooled growth sgRNA counts, T0.
# Tested on: K562 CRISPRi cells
# experiment: Perturb-seq pooled growth measurement (sgRNA counts, growth phenotype γ, relative activity)
# Format: cell-based, human
# cond: sequencing read counts; T0 = day two after transduction

I would be grateful if you could share the reported Perturb-seq pooled growth sgRNA counts, T0 for HSPA5_+_128003624.23-P1P2_01: sgRNA targeting HSPA5, GAACCGAGTAGGCGACGGTG, SEQ ID NO: 91 (listed as DNA, chemistry not fully specified) . 7580

Looking for the measured Perturb-seq pooled growth sgRNA counts, T0 of MTOR_+_11322547.23-P1P2_07: sgRNA targeting MTOR, GGGCAGGGGGTCTGAAGCGG, SEQ ID NO: 147 (listed as DNA, chemistry not fully specified) , can you help? 6761

Give its Perturb-seq pooled growth sgRNA counts, T0 value. Item: DUT_+_48624411.23-P1P2_01: sgRNA targeting DUT, GCCAGCGAGGAGACCACCGG, SEQ ID NO: 111 (listed as DNA, chemistry not fully specified) 25227

Bench note: what Perturb-seq pooled growth sgRNA counts, T0 did EIF2S1_−_67827080.23-P1P2_02: sgRNA targeting EIF2S1, GAGCGCAGCGCACGCTGAGG, SEQ ID NO: 138 (listed as DNA, chemistry not fully specified) show? 8035

Reported Perturb-seq pooled growth sgRNA counts, T0 for GATA1_−_48645022.23-P1P2_03: sgRNA targeting GATA1, GTGCGCTTGCCACATCCCCA, SEQ ID NO: 120 (listed as DNA, chemistry not fully specified) : what is it? 12276

I have this substance here, BCR_+_23523092.23-P1P2_13: sgRNA targeting BCR, GCGCGCGGGGCCCATCTCAG, SEQ ID NO: 130 (listed as DNA, chemistry not fully specified) , and I need its recorded Perturb-seq pooled growth sgRNA counts, T0. 4304

Entry MTOR_+_11322547.23-P1P2_05: sgRNA targeting MTOR, GGGCAGGGGGCTTGAAGCGG, SEQ ID NO: 148 (listed as DNA, chemistry not fully specified) has what Perturb-seq pooled growth sgRNA counts, T0? 5595

What value of Perturb-seq pooled growth sgRNA counts, T0 has been reported for the following substance? BCR_+_23523092.23-P1P2_05: sgRNA targeting BCR, GCGCGCGGCGCCCGTCTCAG, SEQ ID NO: 128 (listed as DNA, chemistry not fully specified) 13439

Form field: reported Perturb-seq pooled growth sgRNA counts, T0 of CDC23_−_137548987.23-P1P2_11: sgRNA targeting CDC23, GACAGCCACCGGGACCACGG, SEQ ID NO: 101 (listed as DNA, chemistry not fully specified) 12707

What does the data say about its Perturb-seq pooled growth sgRNA counts, T0? Entry: RPL9_+_39460483.23-P1P2_05: sgRNA targeting RPL9, GGATGTTTCGGTGCTCGTGG, SEQ ID NO: 52 (listed as DNA, chemistry not fully specified) 4950

====

# Test system: K562 CRISPRi cells
# experiment: Perturb-seq pooled growth measurement (sgRNA counts, growth phenotype γ, relative activity)
# Format: cell-based, human
# cond: pooled growth phenotype γ of the Perturb-seq sgRNA, day 10, K562 CRISPRi cells
Give criterion met when the value for gamma_day10 is at least -0.2. Give criterion not met when it is less.

Does RAN_ + _131356438.23-P1P2_04 (guide GGCGGTCGCGGCGCTTAGGG; listed as DNA, chemistry not fully specified) have a reported gamma_day10 of at least -0.2? criterion met

Quick check: does GNB2L1_ + _180670873.23-P1P2_13 (guide GTGCAAGGCGGCGGCGGGAG; listed as DNA, chemistry not fully specified) have gamma_day10 greater than or equal to -0.2? criterion not met

Reported gamma_day10 at or above -0.2? GATA1_ −_48645022.23-P1P2_04 (guide GTGAGCTTACCACATCCCCA; listed as DNA, chemistry not fully specified) criterion not met

Determine whether measured gamma_day10 meets or exceeds -0.2 for GNB2L1_ + _180670873.23-P1P2_02 (guide GTGCAAGACGGCGGCAGGAG; listed as DNA, chemistry not fully specified) criterion met

Reported gamma_day10 reaches at least -0.2 for BCR_ + _23523092.23-P1P2_13 (guide GCGCGCGGGGCCCATCTCAG; listed as DNA, chemistry not fully specified) ? criterion met

Identify whether the reported gamma_day10 of the following substance is -0.2 or greater: ATP5E_ −_57607036.23-P1P2_04 (guide GGTGTCCAGGAGCACTCTGT; listed as DNA, chemistry not fully specified) criterion met

Check this substance for gamma_day10 at or above -0.2: TUBB_ + _30688126.23-P1_03 (guide GCGGCAGCAAGGTTCTGAGA; listed as DNA, chemistry not fully specified) criterion not met

Is it the case that BCR_ + _23523092.23-P1P2_15 (guide GCGCGCGGGGCCCGTCGCAG; listed as DNA, chemistry not fully specified) has gamma_day10 reaching or exceeding -0.2? criterion met

# bool: gamma_day10 of GINS1_ −_25388381.23-P1P2_03 (guide GGACTATAACGAAAGGAGTG; listed as DNA, chemistry not fully specified) >= -0.2 criterion not met

Test whether the substance MTOR_ + _11322547.23-P1P2_05 (guide GGGCAGGGGGCTTGAAGCGG; listed as DNA, chemistry not fully specified) records gamma_day10 of -0.2 or higher. criterion not met

gamma_day10 >= -0.2 for RPS14_ + _149829238.23-P1P2_02 (guide GAGGCCCTGGCGCGACAATC; listed as DNA, chemistry not fully specified) ? criterion not met

Origin of values: patent US20220259593A1
